Test: Solid stability of compositions 1-11 and compounds 1A-11A: main component content over time under different conditions (Example 37, Table 32)
Format: physicochemical
Conditions: 40 ± 2° C./75 ± 5% RH, 10 d
Classify by measured main component content: Y if it is equal to or exceeds 90%, N if it is smaller.

compound="O=C([O-])C(CF)N(CC(O)C(O)C(O)C(O)CO)C(=S)[S][Na].[Na+] (stereo not shown)" qualitative_label=N
compound="O=C([O-])C(CCSCO)N(CC(O)C(O)C(O)C(O)CO)C(=S)[S][Na].[Na+] (stereo not shown)" qualitative_label=N
compound="COc1ccc(CC(C(=O)[O-])N(CC(O)C(O)C(O)C(O)CO)C(=S)[S][Na])cc1.[Na+] (stereo not shown)" qualitative_label=Y
compound="CSCCC(C(=O)[O-])N(CC(O)C(O)C(O)C(O)CO)C(=S)[S][Na].[Na+] (stereo not shown)" qualitative_label=N

* * *

Test: Solid stability of compositions 1-11 and compounds 1A-11A: main component content over time under different conditions (Example 37, Table 32)
Format: physicochemical
Conditions: 40 ± 2° C./75 ± 5% RH, 5 d
Quick reference for main component content among some compounds
experimental-readout: main component content (%)

compound="CSCCC(C(=O)[O-])N(CC(O)C(O)C(O)C(O)CO)C(=S)[S][Na].[Na+] (stereo not shown) [Composition D3]" experimental_readout="main component content" value_measured=91.2
compound="O=C([O-])C(CO)N(CC(O)C(O)C(O)C(O)CO)C(=S)[S][K].[K+] (stereo not shown) [Compound 10A]" experimental_readout="main component content" value_measured=92.0
compound="O=C([O-])C(Cc1cncs1)N(CC(O)C(O)C(O)C(O)CO)C(=S)[S][Na].[Na+] (stereo not shown) [Compound 9A]" experimental_readout="main component content" value_measured=92.6
compound="O=C([O-])C(CCSCO)N(CC(O)C(O)C(O)C(O)CO)C(=S)[S][Na].[Na+] (stereo not shown) [Compound 4A]" experimental_readout="main component content" value_measured=83.4
compound="O=C([O-])CCC(C(=O)[O-])N(CC(O)C(O)C(O)C(O)CO)C(=S)[S][Na].[Na+].[Na+] (stereo not shown) [Compound 5A]" experimental_readout="main component content" value_measured=97.9
compound="COc1ccc(CC(C(=O)[O-])N(CC(O)C(O)C(O)C(O)CO)C(=S)[S][Na])cc1.[Na+] (stereo not shown) [Compound 7A]" experimental_readout="main component content" value_measured=98.7
compound="O=C([O-])C(CC1CCCCC1)N(CC(O)C(O)C(O)C(O)CO)C(=S)[S][Na].[Na+] (stereo not shown) [Compound 6A]" experimental_readout="main component content" value_measured=91.5
compound="CC(C)C(C(=O)[O-])N(CC(O)C(O)C(O)C(O)CO)C(=S)[S][Na].[Na+] (stereo not shown) [Compound 2A]" experimental_readout="main component content" value_measured=94.1
compound="O=C([O-])C(Cc1cccs1)N(CC(O)C(O)C(O)C(O)CO)C(=S)[S][Na].[Na+] (stereo not shown) [Compound 8A]" experimental_readout="main component content" value_measured=94.7
compound="O=C([O-])C(CF)N(CC(O)C(O)C(O)C(O)CO)C(=S)[S][Na].[Na+] (stereo not shown) [Compound 1A]" experimental_readout="main component content" value_measured=83.5

* * *

Assay: Solid stability of compositions 1-11 and compounds 1A-11A: main component content over time under different conditions (Example 37, Table 32)
Format: physicochemical
Details: −25° C., 5 d
experimental-readout: main component content (%)

compound="O=C([O-])C(CCSCO)N(CC(O)C(O)C(O)C(O)CO)C(=S)[S][Na].[Na+] (stereo not shown)" experimental_readout="main component content" unit_tag=% value_measured=100.2
compound="CSCCC(C(=O)[O-])N(CC(O)C(O)C(O)C(O)CO)C(=S)[S][Na].[Na+] (stereo not shown)" experimental_readout="main component content" unit_tag=% value_measured=101.2
compound="O=C([O-])C(Cc1cccs1)N(CC(O)C(O)C(O)C(O)CO)C(=S)[S][Na].[Na+] (stereo not shown)" experimental_readout="main component content" unit_tag=% value_measured=101.1
compound="O=C([O-])CCC(C(=O)[O-])N(CC(O)C(O)C(O)C(O)CO)C(=S)[S][Na].[Na+].[Na+] (stereo not shown)" experimental_readout="main component content" unit_tag=% value_measured=100.7

* * *

Test: Solid stability of compositions 1-11 and compounds 1A-11A: main component content over time under different conditions (Example 37, Table 32)
Assay type: physicochemical
Details: −25° C., 10 d
Quick reference for main component content among some molecules
experimental-readout: main component content (%)

molecule="O=C([O-])C(CC1CCCCC1)N(CC(O)C(O)C(O)C(O)CO)C(=S)[S][Na].[Na+] (stereo not shown) [Compound 6A]" experimental_readout="main component content" value_measured=99.9
molecule="O=C([O-])C(CCSCO)N(CC(O)C(O)C(O)C(O)CO)C(=S)[S][Na].[Na+] (stereo not shown) [Compound 4A]" experimental_readout="main component content" value_measured=100.5
molecule="CC(C)C(C(=O)[O-])N(CC(O)C(O)C(O)C(O)CO)C(=S)[S][Na].[Na+] (stereo not shown) [Compound 2A]" experimental_readout="main component content" value_measured=99.8
molecule="O=C([O-])C(CF)N(CC(O)C(O)C(O)C(O)CO)C(=S)[S][Na].[Na+] (stereo not shown) [Compound 1A]" experimental_readout="main component content" value_measured=100.1
molecule="CSCCC(C(=O)[O-])N(CC(O)C(O)C(O)C(O)CO)C(=S)[S][Na].[Na+] (stereo not shown) [Composition D3]" experimental_readout="main component content" value_measured=99.8
molecule="O=C([O-])C(CO)N(CC(O)C(O)C(O)C(O)CO)C(=S)[S][K].[K+] (stereo not shown) [Compound 10A]" experimental_readout="main component content" value_measured=101.4
molecule="O=C([O-])C(Cc1cncs1)N(CC(O)C(O)C(O)C(O)CO)C(=S)[S][Na].[Na+] (stereo not shown) [Compound 9A]" experimental_readout="main component content" value_measured=100.5
molecule="O=C([O-])CCC(C(=O)[O-])N(CC(O)C(O)C(O)C(O)CO)C(=S)[S][Na].[Na+].[Na+] (stereo not shown) [Compound 5A]" experimental_readout="main component content" value_measured=101.1
molecule="O=C([O-])C(Cc1cccs1)N(CC(O)C(O)C(O)C(O)CO)C(=S)[S][Na].[Na+] (stereo not shown) [Compound 8A]" experimental_readout="main component content" value_measured=100.3
molecule="COc1ccc(CC(C(=O)[O-])N(CC(O)C(O)C(O)C(O)CO)C(=S)[S][Na])cc1.[Na+] (stereo not shown) [Compound 7A]" experimental_readout="main component content" value_measured=100.6

* * *

Quick reference for main component content among some molecules
Test: Solid stability of compositions 1-11 and compounds 1A-11A: main component content over time under different conditions (Example 37, Table 32)
Format: physicochemical
Details: 25 ± 2° C./60 ± 5% RH, 5 d
Method: Compositions 1-11 and compounds 1A-11A were placed at environments of −25° C., 5±3° C., 25±2° C./60±5% RH, 40±2° C./75±5% RH, 60° C. for 0 d, 5 d and 10 d (d refers to day), respectively, and changes of the main component content (the main component content of 0 day was converted to 100%) were measured, the results are shown in Table 32.
experimental-readout: main component content (%)

molecule="O=C([O-])C(Cc1cncs1)N(CC(O)C(O)C(O)C(O)CO)C(=S)[S][Na].[Na+] (stereo not drawn) [Compound 9A]" experimental_readout="main component content" value_measured=98.9
molecule="O=C([O-])CCC(C(=O)[O-])N(CC(O)C(O)C(O)C(O)CO)C(=S)[S][Na].[Na+].[Na+] (stereo not drawn) [Compound 5A]" experimental_readout="main component content" value_measured=97.8
molecule="CSCCC(C(=O)[O-])N(CC(O)C(O)C(O)C(O)CO)C(=S)[S][Na].[Na+] (stereo not drawn) [Composition D3]" experimental_readout="main component content" value_measured=95.1
molecule="COc1ccc(CC(C(=O)[O-])N(CC(O)C(O)C(O)C(O)CO)C(=S)[S][Na])cc1.[Na+] (stereo not drawn) [Compound 7A]" experimental_readout="main component content" value_measured=99.3
molecule="O=C([O-])C(Cc1cccs1)N(CC(O)C(O)C(O)C(O)CO)C(=S)[S][Na].[Na+] (stereo not drawn) [Compound 8A]" experimental_readout="main component content" value_measured=95.5
molecule="CC(C)C(C(=O)[O-])N(CC(O)C(O)C(O)C(O)CO)C(=S)[S][Na].[Na+] (stereo not drawn) [Compound 2A]" experimental_readout="main component content" value_measured=91.4

* * *

Assay: Solid stability of compositions 1-11 and compounds 1A-11A: main component content over time under different conditions (Example 37, Table 32)
Type: physicochemical
Settings: 40 ± 2° C./75 ± 5% RH, 0 d (0 day content converted to 100%)
Description: Compositions 1-11 and compounds 1A-11A were placed at environments of −25° C., 5±3° C., 25±2° C./60±5% RH, 40±2° C./75±5% RH, 60° C. for 0 d, 5 d and 10 d (d refers to day), respectively, and changes of the main component content (the main component content of 0 day was converted to 100%) were measured, the results are shown in Table 32.
experimental-readout: main component content

molecule="O=C([O-])C(CC1CCCCC1)N(CC(O)C(O)C(O)C(O)CO)C(=S)[S][Na].[Na+] (stereo not drawn)" experimental_readout="main component content" value_measured=100%
molecule="CSCCC(C(=O)[O-])N(CC(O)C(O)C(O)C(O)CO)C(=S)[S][Na].[Na+] (stereo not drawn)" experimental_readout="main component content" value_measured=100%
molecule="O=C([O-])C(Cc1cncs1)N(CC(O)C(O)C(O)C(O)CO)C(=S)[S][Na].[Na+] (stereo not drawn)" experimental_readout="main component content" value_measured=100%
molecule="O=C([O-])C(Cc1cccs1)N(CC(O)C(O)C(O)C(O)CO)C(=S)[S][Na].[Na+] (stereo not drawn)" experimental_readout="main component content" value_measured=100%
molecule="CC(C)C(C(=O)[O-])N(CC(O)C(O)C(O)C(O)CO)C(=S)[S][Na].[Na+] (stereo not drawn)" experimental_readout="main component content" value_measured=100%
molecule="O=C([O-])CCC(C(=O)[O-])N(CC(O)C(O)C(O)C(O)CO)C(=S)[S][Na].[Na+].[Na+] (stereo not drawn)" experimental_readout="main component content" value_measured=100%
